// provenance: patent US9932340B2

- system tested: SUV420H1 enzyme (Homo sapiens)
pIC50: −log10 of the molar value.
# cutoff 6 applies to pIC50; >= gives fulfilled, < gives not fulfilled

Query :: Item Cc1noc(C)c1C(=O)NCc1cc2cc(-c3cccc(C(N)=O)c3)cc(Cn3cnc4c(N)ncnc43)c2[nH]1 with pIC50 of 6 or above?
Result :: fulfilled

Query :: API: above_or_equal(metric=pIC50, cutoff=6) for item Nc1ncnc2c1ncn2Cc1cc(Cl)cc2cc(CNC(=O)CC3CCCCC3)[nH]c12
Result :: not fulfilled

Query :: Form field: pIC50 at least 6? Entry: Nc1ncnc2c1ncn2Cc1cc(Cl)cc2cc(CNC(=O)[C@H]3CCCN3)[nH]c12
Result :: not fulfilled

Query :: In plain terms: is recorded pIC50 at least 6 for Nc1ncnc2c1ncn2Cc1cc(Cl)cc2cc(CNC(=O)c3ccccn3)[nH]c12 ?
Result :: not fulfilled

Query :: Quick check, pIC50 >= 6? C=Cc1ccc2cc(CN)[nH]c2c1Cn1cnc2c(N)ncnc21
Result :: not fulfilled

====

Assay read-out log10 of IC50; system under study: SUV420H1 enzyme (Homo sapiens, UniProt Q4FZB7).
Sequence (Q4FZB7 whole entry): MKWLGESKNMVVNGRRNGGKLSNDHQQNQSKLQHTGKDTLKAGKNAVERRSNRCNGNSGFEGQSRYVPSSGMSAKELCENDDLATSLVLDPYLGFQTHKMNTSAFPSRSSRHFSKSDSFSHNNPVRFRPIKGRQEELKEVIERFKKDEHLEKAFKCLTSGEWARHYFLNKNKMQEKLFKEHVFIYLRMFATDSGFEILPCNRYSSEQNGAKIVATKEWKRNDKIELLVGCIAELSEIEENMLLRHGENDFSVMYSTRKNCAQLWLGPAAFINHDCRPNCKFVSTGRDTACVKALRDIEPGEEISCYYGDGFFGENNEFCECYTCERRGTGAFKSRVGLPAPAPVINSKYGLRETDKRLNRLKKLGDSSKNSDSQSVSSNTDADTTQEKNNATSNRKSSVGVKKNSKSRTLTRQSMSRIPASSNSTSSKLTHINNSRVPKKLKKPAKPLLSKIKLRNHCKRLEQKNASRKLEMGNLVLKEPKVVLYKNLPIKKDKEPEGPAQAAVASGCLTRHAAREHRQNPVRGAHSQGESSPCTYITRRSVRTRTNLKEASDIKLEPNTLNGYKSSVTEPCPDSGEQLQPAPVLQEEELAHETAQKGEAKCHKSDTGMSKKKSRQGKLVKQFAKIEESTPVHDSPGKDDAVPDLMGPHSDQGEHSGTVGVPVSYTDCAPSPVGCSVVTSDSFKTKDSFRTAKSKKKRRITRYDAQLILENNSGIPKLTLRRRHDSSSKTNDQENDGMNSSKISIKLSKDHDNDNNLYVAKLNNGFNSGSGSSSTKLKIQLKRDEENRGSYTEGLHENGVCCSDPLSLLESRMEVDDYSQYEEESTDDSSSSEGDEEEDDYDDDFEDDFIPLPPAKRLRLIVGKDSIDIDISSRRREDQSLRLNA
# log10 transformed; quantity=IC50; unit=nM

compound=Cc1noc(C)c1C(=O)NCc1cc2cc(C3=CCCNC3)cc(Cn3cnc4c(N)ncnc43)c2[nH]1 measurement_type="log10 of IC50" val=2.10

Query :: Param readout= log10 of IC50; system= SUV420H1 enzyme (Homo sapiens, UniProt Q4FZB7); entry= CN(C)CCNC(=O)c1ccc(-c2cc(Cn3cnc4c(N)ncnc43)c3[nH]c(CN)cc3c2)cc1 ; returns value.
Result :: 2.29

Query :: Param readout = log10 of IC50; param system = SUV420H1 enzyme (Homo sapiens, UniProt Q4FZB7); param query = COc1ccccc1CC(=O)NCc1cc2cc(Cl)cc(Cn3cnc4c(N)ncnc43)c2[nH]1 ; response: value
Result :: 3.78

Query :: Form field: log10 of IC50 recorded for Nc1ncnc2c1ncn2Cc1cc(Cl)cc2cc(CNC(=O)C3CCOC3)[nH]c12 (stereo not shown) with SUV420H1 enzyme (Homo sapiens, UniProt Q4FZB7) (enter value)
Result :: 3.91

Query :: Report log10 of IC50 for COc1ccc(CC(=O)NCc2cc3cc(Cl)cc(Cn4cnc5c(N)ncnc54)c3[nH]2)cc1 tested on SUV420H1 enzyme (Homo sapiens, UniProt Q4FZB7).
Result :: 3.78

Query :: Give SUV420H1 enzyme (Homo sapiens, UniProt Q4FZB7) log10 of IC50 for Nc1ncnc2c1ncn2Cc1cc(Cl)cc2cc(CNC(=O)c3cnc4[nH]ccc4c3)[nH]c12
Result :: 4.46

Query :: What reported log10 of IC50 corresponds to Cc1cc(C(=O)NCc2cc3cc(Cl)cc(Cn4cnc5c(N)ncnc54)c3[nH]2)c(C)nn1 on SUV420H1 enzyme (Homo sapiens, UniProt Q4FZB7)?
Result :: 1.78

Query :: Form entry - test system: SUV420H1 enzyme (Homo sapiens, UniProt Q4FZB7); read-out: log10 of IC50; compound: Cc1nn(C)cc1C(=O)NCc1cc2cc(Cl)cc(Cn3cnc4c(N)ncnc43)c2[nH]1
Result :: 2.92

Query :: Short answer please: log10 of IC50, SUV420H1 enzyme (Homo sapiens, UniProt Q4FZB7), entry Nc1ncnc2c1ncn2Cc1cc(Cl)cc2cc(CNC(=O)c3ccccc3OC(F)F)[nH]c12
Result :: 3.30

Query :: Which measured log10 of IC50 belongs to Cn1nccc1C(=O)NCc1cc2cc(Cl)cc(Cn3cnc4c(N)ncnc43)c2[nH]1 , tested on SUV420H1 enzyme (Homo sapiens, UniProt Q4FZB7)?
Result :: 3.03

Query :: Value wanted: log10 of IC50 (SUV420H1 enzyme (Homo sapiens, UniProt Q4FZB7)) of entry Nc1ncnc2c1ncn2Cc1cc(Cl)cc2cc(CNC(=O)C3CCCC3)[nH]c12
Result :: 3.81

Query :: Form: Entry = Nc1ncnc2c1ncn2Cc1cccc2cc[nH]c12 | System = SUV420H1 enzyme (Homo sapiens, UniProt Q4FZB7) | log10 of IC50 = ____
Result :: 4.14
